Cited source: the RNAGym collection of RNA variant scans (doi:10.1038/nmeth.2970)

B1: NELF-E aptamer (parent)
chain: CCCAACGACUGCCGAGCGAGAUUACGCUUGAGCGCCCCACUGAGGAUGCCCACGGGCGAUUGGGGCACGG

variants of: B1; test: HiTS-RAP; conditions: with NELF-E (Drosophila)
observation_type: Kd

• A5U G20A = 6.68 nM
• A24G C53G = 7.46 nM
• A4C = 6.33 nM
• A4U G18A = 4.13 nM
• C13G A43G = 15.3 nM
• A4G G62U = 8.86 nM
• A21G A46G = 39.1 nM
• G14U = 5.68 nM
• C13G G62U = 7.22 nM
• G26U U29G = 7.41 nM
• G11U G30A = 5.79 nM
• A5G C66U = 6.42 nM
• G32A U41G = 5.08 nM
• G11U G55U = 7.1 nM
• A4U G62A = 13.5 nM
• A5G A39G = 13.2 nM
• C12G G42A = 39.8 nM
• C6G A43U = 87.2 nM
• A39U = 23.5 nM
• G7U G32A = 4.74 nM
• A15C = 4 nM
• A5G U41G = 6.23 nM
• U22G C37U = 12.7 nM
• A19G C25U = 6.25 nM
• U29G A59G = 50.9 nM
• A4C C6G = 8.66 nM
• G7A C9G = 5.55 nM
• U22G G26U = 4.84 nM
• U22C A24G = 6.97 nM
• G14A A15G = 6.1 nM
• G63U = 10.3 nM
• U23G G44U = 6.93 nM
• U22G C50G = 7.97 nM
• G7U G56A = 9.43 nM
• C13U U22G = 5.14 nM
• C17G A19G = 5.02 nM
• C6G C13G = 5.09 nM
• A31G A67U = 10.7 nM
• C13G G32A = 4.64 nM
• A21U U29G = 5.33 nM
• A5U C9U = 6.47 nM
• A15U A67G = 4.18 nM
• A8G U28C = 7.19 nM
